test system: THRa homodimer (NR concentration 90 nM); assay: PBM binding z-score (relative to random genomic background probes); higher = stronger binding; sequences stand for … in GC…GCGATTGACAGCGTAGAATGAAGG
Each record's class is read off its PBM binding z-score using these ranges: 0 = under 0.5, 1 = from 0.5 up to 1, 2 = 1 and over

> print(dat)
                        input.sequence                            system.tested  group
 1  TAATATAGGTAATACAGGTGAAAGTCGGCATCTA  THRa homodimer (NR concentration 90 nM)      0
 2  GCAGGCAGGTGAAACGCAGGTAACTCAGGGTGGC  THRa homodimer (NR concentration 90 nM)      0
 3  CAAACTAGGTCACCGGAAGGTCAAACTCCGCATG  THRa homodimer (NR concentration 90 nM)      2
 4  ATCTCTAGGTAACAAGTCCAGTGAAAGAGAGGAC  THRa homodimer (NR concentration 90 nM)      1
 5  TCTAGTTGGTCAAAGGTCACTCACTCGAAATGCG  THRa homodimer (NR concentration 90 nM)      2
 6  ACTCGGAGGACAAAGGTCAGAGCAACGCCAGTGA  THRa homodimer (NR concentration 90 nM)      1
 7  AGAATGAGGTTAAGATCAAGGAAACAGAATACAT  THRa homodimer (NR concentration 90 nM)      1
 8  CGTCCAAGGTCAATGGTCAGTGAAGAGATGACGG  THRa homodimer (NR concentration 90 nM)      2
 9  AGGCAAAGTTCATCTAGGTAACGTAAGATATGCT  THRa homodimer (NR concentration 90 nM)      0
10  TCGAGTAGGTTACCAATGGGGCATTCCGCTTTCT  THRa homodimer (NR concentration 90 nM)      0
11  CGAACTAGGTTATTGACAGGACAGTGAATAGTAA  THRa homodimer (NR concentration 90 nM)      0
12  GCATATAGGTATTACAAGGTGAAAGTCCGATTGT  THRa homodimer (NR concentration 90 nM)      2
13  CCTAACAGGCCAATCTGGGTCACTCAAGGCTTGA  THRa homodimer (NR concentration 90 nM)      1
14  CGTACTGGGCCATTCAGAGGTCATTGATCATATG  THRa homodimer (NR concentration 90 nM)      2
15  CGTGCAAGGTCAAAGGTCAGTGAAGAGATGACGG  THRa homodimer (NR concentration 90 nM)      2
16  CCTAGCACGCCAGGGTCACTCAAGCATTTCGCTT  THRa homodimer (NR concentration 90 nM)      2
17  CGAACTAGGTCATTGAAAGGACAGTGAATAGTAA  THRa homodimer (NR concentration 90 nM)      1
18  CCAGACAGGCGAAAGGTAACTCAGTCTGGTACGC  THRa homodimer (NR concentration 90 nM)      0
19  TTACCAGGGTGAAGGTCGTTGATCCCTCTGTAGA  THRa homodimer (NR concentration 90 nM)      0
20  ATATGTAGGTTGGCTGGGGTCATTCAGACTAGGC  THRa homodimer (NR concentration 90 nM)      2
21  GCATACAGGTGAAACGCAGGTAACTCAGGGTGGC  THRa homodimer (NR concentration 90 nM)      0
22  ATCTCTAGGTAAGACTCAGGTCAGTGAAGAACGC  THRa homodimer (NR concentration 90 nM)      2
23  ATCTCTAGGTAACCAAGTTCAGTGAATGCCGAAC  THRa homodimer (NR concentration 90 nM)      1
24  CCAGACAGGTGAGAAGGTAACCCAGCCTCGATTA  THRa homodimer (NR concentration 90 nM)      0
25  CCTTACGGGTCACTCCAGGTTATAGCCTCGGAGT  THRa homodimer (NR concentration 90 nM)      0
26  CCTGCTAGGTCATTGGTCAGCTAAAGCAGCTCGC  THRa homodimer (NR concentration 90 nM)      2

###

tested on: VDR homodimer (NR concentration 270 nM); test: PBM binding z-score (relative to random genomic background probes); higher = stronger binding; sequences stand for … in GC…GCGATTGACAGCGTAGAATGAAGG
Each record's class is read off its PBM binding z-score using these ranges: low-valued = under 0.07, mid-valued = from 0.07 up to 1, high-valued = 1 and over

> print(dat)
                        input.sequence                            system.tested        group
 1  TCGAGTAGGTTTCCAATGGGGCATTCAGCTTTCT  VDR homodimer (NR concentration 270 nM)   low-valued
 2  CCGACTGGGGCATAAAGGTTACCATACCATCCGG  VDR homodimer (NR concentration 270 nM)   mid-valued
 3  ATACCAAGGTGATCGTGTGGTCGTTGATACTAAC  VDR homodimer (NR concentration 270 nM)   low-valued
 4  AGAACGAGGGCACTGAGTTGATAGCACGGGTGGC  VDR homodimer (NR concentration 270 nM)  high-valued
 5  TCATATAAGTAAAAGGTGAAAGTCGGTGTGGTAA  VDR homodimer (NR concentration 270 nM)   mid-valued
 6  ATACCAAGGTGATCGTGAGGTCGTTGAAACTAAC  VDR homodimer (NR concentration 270 nM)  high-valued
 7  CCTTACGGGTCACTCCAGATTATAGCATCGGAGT  VDR homodimer (NR concentration 270 nM)  high-valued
 8  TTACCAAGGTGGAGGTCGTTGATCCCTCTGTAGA  VDR homodimer (NR concentration 270 nM)  high-valued
 9  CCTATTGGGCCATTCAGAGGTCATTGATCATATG  VDR homodimer (NR concentration 270 nM)  high-valued
10  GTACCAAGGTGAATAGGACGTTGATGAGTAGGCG  VDR homodimer (NR concentration 270 nM)   low-valued
11  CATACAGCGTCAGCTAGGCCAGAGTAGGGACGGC  VDR homodimer (NR concentration 270 nM)   low-valued
12  CTCGAAAGGTCGGTTGAGGTTAGTATACGGATAA  VDR homodimer (NR concentration 270 nM)   mid-valued

###

test system: PPARg:RXRa 270nM:90nM, anti-RXR (NR concentration 270 nM, RXRa partner concentration 90 nM); assay: PBM binding z-score (relative to random genomic background probes); higher = stronger binding; sequences stand for … in GC…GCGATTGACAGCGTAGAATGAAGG
Each record's class is read off its PBM binding z-score using these ranges: one = under 1, two = from 1 up to 2, three = 2 and over

> print(dat)
                        input.sequence  group
 1  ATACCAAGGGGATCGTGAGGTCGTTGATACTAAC    one
 2  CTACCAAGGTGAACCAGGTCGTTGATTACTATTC    two
 3  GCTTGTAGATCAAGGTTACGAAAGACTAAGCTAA    two
 4  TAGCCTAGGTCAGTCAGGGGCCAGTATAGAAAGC    two
 5  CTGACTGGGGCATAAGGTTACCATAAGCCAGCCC  three
 6  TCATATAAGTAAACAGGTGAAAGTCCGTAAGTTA  three
 7  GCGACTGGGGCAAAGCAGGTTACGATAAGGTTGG    two
 8  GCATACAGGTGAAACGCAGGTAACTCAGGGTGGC    one
 9  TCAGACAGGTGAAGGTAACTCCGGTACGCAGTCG  three
10  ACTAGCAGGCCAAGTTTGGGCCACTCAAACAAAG    one
11  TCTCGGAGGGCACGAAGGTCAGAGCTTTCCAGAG  three
12  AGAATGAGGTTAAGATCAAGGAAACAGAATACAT  three
13  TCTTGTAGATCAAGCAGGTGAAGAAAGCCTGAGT    two
14  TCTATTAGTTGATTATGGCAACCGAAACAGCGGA    two
15  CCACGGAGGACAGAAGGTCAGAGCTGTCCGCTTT    one
16  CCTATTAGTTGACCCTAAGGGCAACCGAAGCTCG  three
17  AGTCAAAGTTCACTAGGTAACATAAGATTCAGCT  three
18  CGAACTAGGTCATCCAAGACAGTGAATACATTGA  three
19  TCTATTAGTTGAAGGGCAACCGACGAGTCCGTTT  three
20  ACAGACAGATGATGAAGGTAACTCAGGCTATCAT    one
21  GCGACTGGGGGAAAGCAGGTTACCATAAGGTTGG    two
22  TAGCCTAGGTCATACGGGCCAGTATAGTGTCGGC  three
23  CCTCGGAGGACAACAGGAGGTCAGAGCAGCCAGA    one
24  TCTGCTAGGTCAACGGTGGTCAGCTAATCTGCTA  three
25  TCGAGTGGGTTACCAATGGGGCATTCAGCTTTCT    one
26  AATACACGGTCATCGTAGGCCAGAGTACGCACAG    one
